- Test summary: qHTS Assay for Rab9 Promoter Activators; further: nearly all actives have a fitted effect of over 60% in size
- Assay context: Huh7 Rab9 promoter-luciferase reporter, luminescence, 24 h; series mostly up to 9.22 µM
Hit rate of the full screen: of about 320,000 compounds, about 9,100 (2.8%) were called active. Another 3% or so got no clear call; they are omitted. The call rests on the fitted dose curve; in most records, active means well fitted activation curve with a large enough effect; inconclusive means small, poorly fitted or top-dose-only effect; inactive means no such curve, though single readings can be large or run the other way. What follows is part of a selection rich in actives, with near analogues and random picks from the rest.
Classes used: y = active, n = inactive

{"columns": ["Compound", "Assigned category"],
 "data": [
  ["CC1(C)CC(=O)C=C(c2ccc3ncccc3c2)C1", "n"],
  ["C=CCNC(=O)c1ccc2c3n(nc2c1)-c1ccc(C)cc1CO3", "y"],
  ["O=C(Nc1nc2ccccc2s1)c1ccc2c(c1)OCO2", "y"],
  ["O=C(Nc1nc2cc3c(cc2s1)OCCO3)c1cccc(S(=O)(=O)N2CCOCC2)c1", "n"],
  ["Cc1ccc(NC(=O)c2csc3c2CCCC3)cc1", "y"],
  ["O=C(NCc1ccccc1CN1CCCC1)c1cccc(S(=O)(=O)Nc2ccc(F)cc2)c1", "n"],
  ["CCN(CC(=O)Nc1c(F)cccc1F)C(=O)c1ccc(-c2ccc(C(C)=O)cc2)o1", "n"],
  ["CC(=O)Nc1ccc(S(=O)(=O)NC(C)C(=O)OCCOc2ccc(F)cc2)cc1 (stereo unspecified)", "n"],
  ["Cc1ccc(-n2ncc3c(Nc4cccc(C(=O)O)c4)ncnc32)cc1", "y"],
  ["Cc1ccc(C(=O)CSc2nc3ccccc3c(=O)n2N)o1", "y"],
  ["CCn1cnc2scc(-c3ccc(C)c(C)c3)c2c1=O", "n"]
]}

----------
- Test summary: qHTS Assay for Rab9 Promoter Activators; further: nearly all actives have a fitted effect of over 60% in size
- Assay context: Huh7 Rab9 promoter-luciferase reporter, luminescence, 24 h; series mostly up to 9.22 µM
Among all 320,000 compounds or so, about 9,100 (2.8%) were called active. Not shown: some 3% with an inconclusive outcome. Calls come from the whole dose curve; as a rule, active = well fitted activation curve with a large enough effect; inconclusive = small, poorly fitted or top-dose-only effect; inactive = no such curve, though single readings can be large or run the other way. Only a selection was taken, and actives are over-represented in it overall.
Classes used: TRUE = active, FALSE = inactive

{"columns": ["Compound smiles", "Assigned category"],
 "data": [
  ["COc1cccc(C(=O)Nc2cc3c(cc2Br)OCCCO3)c1", "TRUE"],
  ["O=c1c2ccccc2c(-c2ccc(F)cc2)nn1-c1ccc(C(F)(F)F)cc1", "FALSE"],
  ["Cn1c(-c2ccc(C(F)(F)F)cc2)cc2onc(-c3ccccc3)c2c1=O", "TRUE"]
]}

----------
- Test summary: qHTS Assay for Rab9 Promoter Activators; further: nearly all actives have a fitted effect of over 60% in size
- Assay context: Huh7 Rab9 promoter-luciferase reporter, luminescence, 24 h; series mostly up to 9.22 µM
Among all 320,000 compounds or so, about 9,100 (2.8%) were called active. About 3% were inconclusive and are not listed. Calls come from the whole dose curve; as a rule, active = well fitted activation curve with a large enough effect; inconclusive = small, poorly fitted or top-dose-only effect; inactive = no such curve, though single readings can be large or run the other way. Only a selection was taken, and actives are over-represented in it overall.
Classes used: Y for active, N for inactive

{"columns": ["Compound", "Assigned category"],
 "data": [
  ["Cc1c(C(=O)Nc2ccccn2)oc2ccc(Br)cc12", "Y"],
  ["Cc1cccc(-c2noc(CCC(=O)NC3CCCC3)n2)c1", "N"],
  ["COc1ccc(-c2csc3nc(-c4ccccc4F)oc(=O)c23)cc1OC", "N"],
  ["COc1ccc(-c2noc(CN(C)S(=O)(=O)c3ccc(C)cc3)n2)cc1", "N"],
  ["COc1ccc(-c2noc(CNC(=O)C(C)Oc3ccccc3)n2)cc1 (stereo unspecified)", "N"],
  ["Cc1ccc(O)c(CNc2nc3ccccc3[nH]2)c1", "N"],
  ["COc1ccc(-c2nc(-c3ccccc3)no2)c(OC)c1", "Y"],
  ["Cc1nnc2n1N=C(c1ccccc1)CS2", "N"],
  ["CC(C)(C)C(=O)Nc1ccc(-c2cn3cccnc3n2)cc1", "Y"],
  ["COc1ccc(C(=O)NCc2ccc(Cl)cc2)cc1S(=O)(=O)N1CCCC1", "N"],
  ["CC(=O)Nc1ccc(S(=O)(=O)Nc2cccc(NC(=O)C(C)(C)C)c2)cc1", "N"]
]}

----------
- Test summary: qHTS Assay for Rab9 Promoter Activators; further: nearly all actives have a fitted effect of over 60% in size; further: potency means the concentration at half of the fitted maximal effect
- Assay context: Huh7 Rab9 promoter-luciferase reporter, luminescence, 24 h; series mostly up to 9.22 µM
Among all 320,000 compounds or so, about 9,100 (2.8%) were called active. About 3% were inconclusive and are not listed. The list comes from a sample in which actives are over-represented; it also holds close analogues and randomly drawn compounds.

{"columns": ["Molecule", "Potency"],
 "data": [
  ["Cc1ccc(C(=O)Nc2ccc3c(c2)OCO3)cc1S(=O)(=O)N1CCCCC1", "inactive"],
  ["Cc1ccoc1C(=O)Nc1cccc(Oc2ccccc2)c1", "3.98 µM (active)"],
  ["Cc1ccc(C(=O)NNc2ncnc3ccccc23)cc1", "3.98 µM (active)"],
  ["CC(C)CNC(=O)C(=O)NCc1ccccc1", "inactive"],
  ["Cc1ccc(OC(=O)c2c(C)nn(-c3ccccc3)c2C)cc1", "3.16 µM (active)"],
  ["CCCc1nc2ccccc2c(=O)n1NC(=O)c1c(O)c2ccccc2[nH]c1=O", "inactive"],
  ["CSc1ccccc1C(=O)OCC(=O)N1CCN(C(C)=O)CC1", "inactive"],
  ["O=C(/C=C/c1cnc2ccccc2n1)NC1CCCCCC1", "3.16 µM (active)"],
  ["CC(C)(C)OC(=O)NCCCCCNC(=O)c1[nH]cnc1C(=O)Nc1nccs1", "inactive"],
  ["CCCOC1CCCN(C(=O)c2cc(COc3cncc(Cl)c3)on2)C1 (stereo not given)", "1.41 µM (active)"],
  ["Cc1ccc(SCCC(=O)Nc2cc(C)on2)cc1", "inactive"],
  ["O=C(NCC#CCSc1nnc(-c2cccc3ccccc23)o1)c1cccs1", "inactive"],
  ["O=C(O)c1ccccc1N=N/C(=N/Nc1cc(S(=O)(=O)O)ccc1O)c1ccccc1", "inactive"],
  ["CN(C)S(=O)(=O)c1ccc(C(=O)NCC2(N3CCOCC3)CCCCC2)cc1", "inactive"],
  ["CN(CC(=O)Nc1ccc(F)cc1)CC(=O)N1CCCCC1", "inactive"],
  ["O=C(CNS(=O)(=O)c1ccc2ccccc2c1)Nc1ccc(F)c(F)c1F", "inactive"],
  ["CCOC(=O)CC1(NC(=O)c2cc(COc3cncc(Cl)c3)on2)CCCCC1", "inactive"],
  ["CC(C)Cc1cc(C(=O)NCCc2ccccc2)no1", "3.16 µM (active)"],
  ["CC(C)C(=O)Nc1cccc(C(=O)Nc2ccc3c(c2)OCO3)c1", "1.12 µM (active)"],
  ["CC(C)C[C@H](NC(=O)[C@H](O)[C@H](N)Cc1ccccc1)C(=O)O", "inactive"],
  ["O=C(CN1C(=O)NC2(CCCCC2)C1=O)N1CCN(C(=O)c2cccs2)CC1", "inactive"],
  ["O=C(Nc1ccon1)c1nc[nH]c1C(=O)NCc1ccccc1", "inactive"],
  ["COc1ccc(C(=O)OCC(=O)N2CC(=O)Nc3ccccc32)cc1Br", "inactive"],
  ["C=CCn1c(CCNC(=O)c2cccs2)n[nH]c1=S", "inactive"],
  ["COc1ccc(OC)c(-c2csc(-c3cccs3)n2)c1", "inactive"],
  ["CCN(CC)C(=O)c1nc[nH]c1C(=O)N(C)Cc1ccccc1", "inactive"],
  ["Cc1cccc(C)c1NC(=O)COC(=O)c1c(C)nn(-c2ccccc2)c1C", "inactive"],
  ["O=C(NCC1(N2CCCCC2)CCCCC1)c1ccc(NS(=O)(=O)c2ccc(F)cc2)cc1", "inactive"],
  ["CCN(CC)CCN1C(=O)C(=O)/C(=C(/O)c2ccccc2)C1c1ccccc1F (stereo not given)", "inactive"],
  ["CCN(CC)CCN1C(=O)C(=O)/C(=C(/O)c2ccc(OC)c(OC)c2)C1c1ccccn1 (stereo not given)", "inactive"],
  ["O=C(Nc1ccc(Cl)cc1)/C(=C1\\CCCN1)[N+](=O)[O-]", "2.82 µM (active)"],
  ["COc1ccc(NC(=O)CSc2nnc(C3CC3)n2C)cc1S(=O)(=O)N1CCCCC1", "inactive"],
  ["Cc1cccc(NC(=S)NCCc2ccc(Cl)cc2)c1C", "inactive"],
  ["Cc1ccc(C(=O)COc2cccc(NC(=O)c3ccco3)c2)cc1", "inactive"],
  ["CC(=O)c1ccc(NC(=O)CSC(=S)N2CCCC2)cc1", "inactive"]
]}

----------
- Test summary: qHTS Assay for Rab9 Promoter Activators; further: nearly all actives have a fitted effect of over 60% in size
- Assay context: Huh7 Rab9 promoter-luciferase reporter, luminescence, 24 h; series mostly up to 9.22 µM
Screen size: about 320,000 compounds; about 9,100 (2.8%) were called active. About 3% were inconclusive and are not listed. The call rests on the fitted dose curve; in most records, active means well fitted activation curve with a large enough effect; inconclusive means small, poorly fitted or top-dose-only effect; inactive means no such curve, though single readings can be large or run the other way. The sample holds actives, similar compounds and a random draw of the others, so the mix is not that of the screen.
Classes used: 1 (yes) (active), 0 (no) (inactive)

{"columns": ["Compound", "Assigned category"],
 "data": [
  ["O=C(NCc1ccco1)c1cccn2c(=O)c3c4c(sc3nc12)CCCC4", "0 (no)"],
  ["Cc1cccc(NC(=O)c2ccccc2NC(=O)C(C)(C)C)n1", "0 (no)"],
  ["CC/C(Cc1ccccc1)=N/NC(=O)CCn1nnc2ccccc21", "0 (no)"],
  ["O=C(c1cc2ccccc2o1)N1CCN(S(=O)(=O)c2ccc(Cl)s2)CC1", "0 (no)"],
  ["COc1ccc(/C=N/OCC(=O)N(Cc2ccccc2)c2ccccc2C(=O)O)cc1", "0 (no)"],
  ["O=C(Nc1cccc(-n2cnnn2)c1)c1cccnc1", "0 (no)"],
  ["COc1ccc(/C=N/Nc2ccccc2C(=O)O)cc1", "1 (yes)"],
  ["CCOC(=O)c1sc(=NC(=O)/C=C/c2cccs2)n(C)c1C", "1 (yes)"],
  ["CCc1ccccc1OCC(=O)Nc1ccc(C)c(S(=O)(=O)N2CCCCCC2)c1", "0 (no)"],
  ["COc1ccc(C(=O)NC2=NCCS2)c(OC)c1", "1 (yes)"],
  ["O=C(NCc1cccc(Cl)c1)C1=CC=CN2CCS(=O)(=O)N=C12", "0 (no)"],
  ["O=C(COc1nc2ccccc2nc1N1CCOCC1)NCC(F)(F)F", "0 (no)"],
  ["Cc1cccc(NC(=O)c2ccc3ccccc3n2)n1", "1 (yes)"],
  ["CS(=O)(=O)Nc1ccccc1C(=O)OCC(=O)NC1CC1", "0 (no)"],
  ["COc1ccc2nc(SCc3ccccc3)nc(C)c2c1", "1 (yes)"],
  ["CCc1cccc(C)c1NC(=O)COC(=O)CC1CCCC1", "0 (no)"],
  ["COc1ccc(-c2nnc3ccc(SCc4ccccc4)nn23)cc1", "0 (no)"],
  ["Cc1nc(-c2ccc(F)cc2)c(CC(=O)N(C)CC(=O)Nc2c(C)cccc2C)s1", "0 (no)"],
  ["O=C(CCNS(=O)(=O)c1ccccc1C(F)(F)F)Nc1ccncc1", "0 (no)"],
  ["CN1CCN(S(=O)(=O)c2ccc(N3CCN(c4ccccc4O)CC3)c([N+](=O)[O-])c2)CC1", "0 (no)"],
  ["O=c1oc(-c2ccco2)nc2sc3c(c12)CCCCC3", "1 (yes)"],
  ["CC(OC(=O)Cc1ccc(F)cc1)C(=O)N1CCc2ccccc21 (configuration not stated)", "0 (no)"],
  ["Cc1ccc(S(=O)(=O)N(C)CC(=O)NCC(c2ccc(F)cc2)N2CCOCC2)cc1 (configuration not stated)", "0 (no)"],
  ["O=c1oc2ccccc2cc1-c1csc(Nc2ccc(O)cc2)n1", "0 (no)"],
  ["Cc1cc(NC(=O)CSc2nnc(-c3ccc(Cl)s3)o2)no1", "0 (no)"],
  ["CCC(=O)c1cc(F)ccc1OCC(=O)Nc1ccc2c(c1)OCCO2", "0 (no)"],
  ["O=C(N/C(=C\\c1ccc([N+](=O)[O-])cc1)C(=O)N1CCOCC1)c1cccc(Br)c1", "0 (no)"],
  ["CCOc1ccc(C(=O)CCC(=O)NC2=NCCS2)cc1", "0 (no)"],
  ["COc1ccc(/C=N/NS(=O)(=O)c2ccc(NC(C)=O)cc2)cc1", "0 (no)"],
  ["Cc1cc(NC(=O)c2ccco2)c(=O)n(Cc2c(F)cccc2Cl)c1", "0 (no)"],
  ["O=C(NC1=NCCS1)c1ccc(Cl)s1", "1 (yes)"],
  ["COc1ccc(/C=N/Nc2nc(-c3ccc(C)cc3)c(C#N)c(=O)[nH]2)cc1", "0 (no)"],
  ["Cc1ccc(-n2nc3cc(C)c(NC(=O)c4cccnc4)cc3n2)cc1", "1 (yes)"],
  ["CC(Oc1ccc(F)cc1F)C(=O)/C=C/N(C)C (configuration not stated)", "0 (no)"],
  ["CN(CC(=O)Nc1ccc(F)c(F)c1F)C(=O)C1CC(=O)N(C2CCCC2)C1 (configuration not stated)", "0 (no)"],
  ["CN1CCN(S(=O)(=O)c2cccc(C(=O)Nc3cccc(S(N)(=O)=O)c3)c2)CC1", "0 (no)"],
  ["CCC1(C)NC(=O)N(CC(=O)N2CCN(c3cccc(Cl)c3)CC2)C1=O (configuration not stated)", "0 (no)"],
  ["CCN(CC(=O)Nc1ccc(OC)cc1)C(=O)CSCc1ccc(C)cc1", "0 (no)"],
  ["COC(=O)c1ccc(C)c(NC(=O)C2CC(=O)N(C3CCCC(C)C3C)C2)c1 (configuration not stated)", "0 (no)"],
  ["O=S(=O)(NCc1ccccc1Br)c1ccccc1Br", "0 (no)"],
  ["Cn1c(=O)n(Cc2ccco2)c(=N)c2c3c(sc21)CCCC3", "0 (no)"],
  ["Cc1ccc(C(=O)/C=C/Nc2ccc(S(=O)(=O)Nc3onc(C)c3C)cc2)cc1", "0 (no)"]
]}
